# credit: paper PMC10450149

For each record, write down the corresponding Fluorescence at max (%).
tested on: recombinant PsauGOBP2; assay: Competitive fluorescence binding assay: displacement of 1-NPN from recombinant PsauGOBP2; set-up: species or system Peridroma saucia; conditions: remaining 1-NPN fluorescence at Max Conc 20 (20 µM, host plant volatiles); means ± SE, n = 3
One number for each entry, in %.

Consider the worked cases shown below.
INSERT INTO assay_data (compound, recorded_value) VALUES
  ('CCCCCCCC=O', 75),
  ('CC(=O)OCCc1ccccc1 [Phenylethyl acetate]', 39);

Return reported Fluorescence at max (%) values for all items listed beneath this line.
1. C=C1CC/C=C(\C)CC[C@@H]2[C@@H]1CC2(C)C [(E)-Caryophyllene, (E)-caryophyllene]
2. C=CC(C)(O)CCC=C(C)C (stereo not shown)

### Response
90
74
